Each recorded value in this set is attributed to paper PMC8119466.

Each entry below carries its reported % Phosphatase Activity (compared to DMSO) PRL-1.
- systemTested: recombinant PRL-1 (Homo sapiens, UniProt Q93096)
- Construct: 6xHis (N, cleaved yes); made in house; host or cells: E. coli One Shot BL21 Star
- Sequence (Q93096 whole entry): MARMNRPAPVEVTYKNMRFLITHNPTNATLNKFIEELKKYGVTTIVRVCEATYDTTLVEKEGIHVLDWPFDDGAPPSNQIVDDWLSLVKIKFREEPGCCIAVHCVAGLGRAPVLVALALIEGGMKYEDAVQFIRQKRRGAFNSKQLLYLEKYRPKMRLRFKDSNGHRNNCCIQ
- testDescription: In vitro phosphatase assay (DiFMUP hydrolysis), PRL-1; also: test concentration or dose not given here
- Assay type: biochemical
- assayContext: FDA-approved drug screen; compared to DMSO
Please state the figure in %; there is no need to write the unit.

> print(dat)
                            structurestring                              systemtested  recordedvalue
1  Nc1nc(=O)c2nc(CNc3ccc(C(=O)N[C@@H](CCC(=O)O)C(=O)O)cc3)cnc2[nH]1  recombinant PRL-1 (Homo sapiens, UniProt Q93096)            100
2  c1cn2cc(-c3ccc4cn[nH]c4c3)nc(Nc3ccc(N4CCOCC4)cc3)c2n1  recombinant PRL-1 (Homo sapiens, UniProt Q93096)            294
3  CN(C)C(=O)c1cc2cnc(Nc3ccc(N4CCNCC4)cn3)nc2n1C1CCCC1  recombinant PRL-1 (Homo sapiens, UniProt Q93096)            103

Now consider a different compound.
Lookup: // returns reported % Phosphatase Activity (compared to DMSO) PRL-1 for input CO[C@@]12[C@H](COC(N)=O)C3=C(C(=O)C(C)=C(N)C3=O)N1C[C@@H]1N[C@@H]12
Found: 68
